// data source = patent US20250129145A1

Target: T1, human serum albumin (human, UniProt P02768 25-609)
T1 construct: Bought protein; also called HSA
Test: SPR, pH 7.4, immobilized HSA density ~6700 RU
Protocol: The purified multivalent albumin binding constructs were also tested in SPR on different densities of HSA (100 RU until 6700 RU) to detect avidity.
Property Measured: koff (s⁻¹)
Numeric answer only, unit s⁻¹ assumed.

Entry TPP-66094 (VHH, also called T023500029-35GS-ALB23002-A; T023500029-35GS-Alb223) EVQLVESGGGVVQPGDSLRLSCAASGGTFSTYVMGWFRQAPGKEREFVSAISQNSIHTYYANSVKGRFTISRDNSKNTVYLQLNSLRPEDTALYYCAASRFTSWYTADYEYDYWGQGTLVTVSSGGGGSGGGGSGGGGSGGGGSGGGGSGGGGSGGGGSEVQLVESGGGVVQPGGSLRLSCAASGFTFRSFGMSWVRQAPGKGPEWVSSISGSGSDTLYADSVKGRFTISRDNSKNTLYLQMNSLRPEDTALYYCTIGGSLSRSSQGTLVTVSSA , koff reported as 5.6e-05

Entry TPP-66095 (other, also called DARPIN-35GS-ALB23002-A; DARPIN-35GS-Alb223) DLGKKLLEAARAGQDDEVRELLKAGADVNAKDYFSHTPLHLAARNGHLKIVEVLLKAGADVNAKDFAGKTPLHLAANEGHLEIVEVLLKAGADVNAQDIFGKTPADIAADAGHEDIAEVLQKAAGGGGSGGGGSGGGGSGGGGSGGGGSGGGGSGGGGSEVQLVESGGGVVQPGGSLRLSCAASGFTFRSFGMSWVRQAPGKGPEWVSSISGSGSDTLYADSVKGRFTISRDNSKNTLYLQMNSLRPEDTALYYCTIGGSLSRSSQGTLVTVSSA , koff reported as 8.3e-05
